# subjectOfTest: Met receptor (EGFR/Met chimeric cells, EMR) (Homo sapiens, UniProt P08581)
# Construct: expressed in transfected cells; the other entry of the earlier key: EGFR (P00533, Epidermal growth factor receptor)
# Sequence (P08581 with tags, fused parts or gaps): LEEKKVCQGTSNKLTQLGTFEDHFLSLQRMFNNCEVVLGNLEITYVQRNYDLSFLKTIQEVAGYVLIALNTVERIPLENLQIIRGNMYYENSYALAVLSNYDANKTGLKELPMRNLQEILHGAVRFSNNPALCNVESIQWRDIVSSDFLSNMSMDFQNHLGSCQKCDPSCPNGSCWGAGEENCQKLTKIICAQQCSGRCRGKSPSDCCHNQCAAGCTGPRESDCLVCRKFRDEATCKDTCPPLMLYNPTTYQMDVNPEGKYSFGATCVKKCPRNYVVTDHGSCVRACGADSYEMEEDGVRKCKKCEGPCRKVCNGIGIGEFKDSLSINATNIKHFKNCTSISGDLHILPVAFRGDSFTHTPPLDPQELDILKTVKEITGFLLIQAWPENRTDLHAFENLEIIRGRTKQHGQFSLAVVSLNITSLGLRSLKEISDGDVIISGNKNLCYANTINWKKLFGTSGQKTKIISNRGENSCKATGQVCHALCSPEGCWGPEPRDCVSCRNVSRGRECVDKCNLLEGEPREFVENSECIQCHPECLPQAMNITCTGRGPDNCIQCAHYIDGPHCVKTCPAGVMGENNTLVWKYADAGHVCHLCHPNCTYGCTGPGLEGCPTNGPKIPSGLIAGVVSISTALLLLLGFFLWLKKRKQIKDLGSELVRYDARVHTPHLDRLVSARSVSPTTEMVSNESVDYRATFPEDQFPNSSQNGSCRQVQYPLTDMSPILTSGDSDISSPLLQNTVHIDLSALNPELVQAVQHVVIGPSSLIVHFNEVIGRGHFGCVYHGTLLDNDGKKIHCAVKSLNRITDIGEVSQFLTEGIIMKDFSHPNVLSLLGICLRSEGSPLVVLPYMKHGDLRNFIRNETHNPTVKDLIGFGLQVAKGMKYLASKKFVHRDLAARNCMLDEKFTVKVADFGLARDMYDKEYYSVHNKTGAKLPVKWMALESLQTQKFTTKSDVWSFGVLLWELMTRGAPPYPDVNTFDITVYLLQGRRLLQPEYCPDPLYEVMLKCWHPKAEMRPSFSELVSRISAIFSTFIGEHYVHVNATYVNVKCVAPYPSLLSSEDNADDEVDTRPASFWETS
# protocolSummary: Met Autophosphorylation Assay
# Format: biochemical
Binary label based on Met Kinase % Inhibition (P.130) with cut-off 50%: below gives Criterion met, not below gives Criterion not met.

CNS(=O)(=O)c1ccc2c(c1)C(=Cc1ccc(F)c(F)c1)C(=O)N2 [10735/D03]: Criterion met
CCn1c2ccccc2c2cc(C=C3C(=O)Nc4c(Br)cc(Br)c(C)c43)ccc21 [10731/H02]: Criterion met
Cc1c(Br)cc(Br)c2c1C(=Cc1ccc(O)c(C(C)(C)C)c1)C(=O)N2 [10721/H09]: Criterion met
O=C1Nc2ccc(S(=O)(=O)Nc3ccc(C(F)(F)F)cc3)cc2C1=Cc1ccccc1C(F)(F)F [10736/E03]: Criterion met
O=C1Nc2ccc(I)cc2C1=Cc1cc(Cl)ccc1O [10734/B04]: Criterion not met

(Q) Met Kinase % Inhibition (P.130) under 50%? Item: Cc1c(Br)cc(Br)c2c1C(=Cc1ccccn1)C(=O)N2 [10729/H07]
(A) Criterion not met
